From: PubChem BioAssay (NCI)

- Tested on: BT-549 breast
- protocol.notes: NCI tumour cell line growth inhibition, 48 h
property.label: TGI (µM)
# output: bare number, implied unit µM

A selection of reference data follows.
compound="CCN(CC)CCCC(C)Nc1c(C)cnc2cc(Cl)c(C)cc12 (stereo not given)" property_label=TGI unit_spec=µM endpoint_value=28.7
compound=CN(C)c1ccc(N)cc1 property_label=TGI unit_spec=µM endpoint_value=16.1

Field: next compound
CCC#CC[C@H]1C/C=C2/C(=O)C=C[C@@H]2C/C=C\CCCC(=O)O1 yielded TGI of 3.27

----------
- System: MDA-N
- protocol.notes: NCI tumour cell line growth inhibition, 48 h
property.label: TGI

compound=CC(=O)Nc1ccc(-c2nc3ccccc3s2)cc1Br target=MDA-N endpoint_value="> 100 µM"
compound="COC(=O)C1=CC2C(=O)c3ccccc3C1(c1ccccc1)N2C1CCCCC1 (stereo not drawn)" target=MDA-N endpoint_value="> 100 µM"
compound=COc1nn(Cc2ccccn2)c2ccc([N+](=O)[O-])cc12 target=MDA-N endpoint_value="95.5 µM"
compound=Cc1cccc(N/C(=C(/C(Cl)=C(Cl)Cl)[N+](=O)[O-])n2nnc3ccccc32)c1 target=MDA-N endpoint_value="64.9 µM"
compound="C[C@]12CCC(O)CC1=CC[C@@H]1[C@@H]2CC[C@]2(C)C(O)[C@H](n3ccnc3)C[C@@H]12 (stereo partly drawn)" target=MDA-N endpoint_value="> 100 µM"
compound=Cc1ccc(-c2c(C#N)c(-c3ccccc3)n(NS(=O)(=O)c3ccc(C)cc3)c(=O)c2C#N)cc1 target=MDA-N endpoint_value="> 100 µM"
compound="Cc1cn(C2OC(CO[Si](C)(C)C(C)(C)C)/C(=C\\C#N)C2O[Si](C)(C)C(C)(C)C)c(=O)[nH]c1=O (stereo not drawn)" target=MDA-N endpoint_value="> 100 µM"
compound="NC(CC(=O)OCc1ccccc1)C(=O)OCc1ccccc1 (stereo not drawn)" target=MDA-N endpoint_value="> 100 µM"

CC12Nc3c(Cl)cc(Cl)cc3N1C(=O)c1ccccc12 (stereo not drawn) yielded TGI of > 100 µM

CC1=NN(c2ccccc2)C2(C1)C(Cl)C(=O)N2c1nc2ccccc2s1 (stereo not drawn) yielded TGI of > 100 µM

CC(NC(=O)OCc1ccccc1)NC(=O)OC(C)(C)C (stereo not drawn) yielded TGI of > 100 µM

OCC1OC(NC(=S)NCCC(F)(F)C(F)(F)C(F)(F)C(F)(F)C(F)(F)C(F)(F)F)C(O)C(O)C1O (stereo not drawn) yielded TGI of > 100 µM

Cc1nc2ccccc2c(=O)n1NC(=O)c1ccccn1 yielded TGI of > 100 µM

CC(=O)O[C@H]1C(=O)[C@@]2(C)[C@H]([C@H](OC(=O)c3ccccc3)[C@]3(O)C[C@H](OC(=O)[C@H](O)[C@@H](NC(=O)c4ccc(N)cc4)c4ccccc4)C(C)=C1C3(C)C)[C@]1(OC(C)=O)CO[C@@H]1C[C@@H]2O yielded TGI of < 0.005 µM

CC(=O)c1c(-c2ccc(Cl)cc2)c(-c2ccc(Cl)cc2)n[nH]c1=O yielded TGI of > 100 µM

CC[C@@]1(O)C(=O)OCc2c1cc1n(c2=O)Cc2c-1nc1ccccc1c2/C=N\NC(=O)C[n+]1ccccc1 yielded TGI of > 100 µM
